Would you mind telling me the reported pKi of each entry?
molecular target: human dopamine D3 receptor (hD3R) (Homo sapiens); assay: Human D3 receptor binding assay ([^3H]-7-OH-DPAT); conditions: CHO cells expressing hD3R, geometric mean of 2-5 determinations unless marked b (single determination), read-out: hD3 in CHO cells Ki
Sequence (P35462 whole entry): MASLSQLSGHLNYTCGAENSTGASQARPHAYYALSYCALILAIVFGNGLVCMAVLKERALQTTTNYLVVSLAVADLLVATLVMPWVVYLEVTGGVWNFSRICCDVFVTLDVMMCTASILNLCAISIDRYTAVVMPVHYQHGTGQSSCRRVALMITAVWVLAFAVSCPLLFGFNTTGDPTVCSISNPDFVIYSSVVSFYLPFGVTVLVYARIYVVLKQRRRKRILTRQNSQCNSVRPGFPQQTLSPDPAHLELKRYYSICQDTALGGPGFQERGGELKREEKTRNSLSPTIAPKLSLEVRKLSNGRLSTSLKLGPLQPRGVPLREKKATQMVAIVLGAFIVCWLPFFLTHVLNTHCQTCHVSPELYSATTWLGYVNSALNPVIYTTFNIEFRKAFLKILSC
Note on pKi: it is the negative log10 of concentration, concentration in mol/L.

q: Which pKi value belongs to CCN1CCc2cc(NS(=O)(=O)c3ccc(Cl)cc3)c(C)nc2CC1 ?
a: 6.54

q: Input COc1nc2c(cc1NS(=O)(=O)c1ccc([C@H]3CC[C@H](OC)CC3)cc1)CCN(C)CC2
a: 8.53

q: Next: COc1nc2c(cc1NS(=O)(=O)c1ccc(C3CC(F)CCO3)cc1)CCN(C)CC2 (single isomer, unassigned; diastereomer-1) [Example 108]
a: 7.82

q: Another compound: CCOc1ccc(S(=O)(=O)Nc2cc3c(nc2OC)CCN(C)CC3)cc1
a: 8.63

q: Next record, please: COc1nc2c(cc1NS(=O)(=O)c1ccc(C3CCCOC3)cc1)CCN(C)CC2 (single isomer, unassigned) [Example 83]
a: 8.33

q: Same read-out for COc1nc2c(cc1NS(=O)(=O)c1ccc(C)cc1)CCN(C)CC2 ?
a: 8.43

q: What would you report for COc1nc2c(cc1NS(=O)(=O)c1ccc(C(C)OC)cc1)CCN(C)CC2 (centres unmarked) ?
a: 8.98

q: One more compound: CCO[C@H]1C[C@@H](c2ccc(S(=O)(=O)Nc3cc4c(nc3OC)CCN(CC)CC4)cc2)C1
a: 8.89
